- assay.explanation: qHTS of pediatric cancer cell lines to identify multiple opportunities for drug repurposing: Confirmatory screen for MG 63 (6-TG R) cells (AID 1347119); also: nearly all actives have a fitted effect of over 55% in size
- experimental.setup: MG-63 (6-TG resistant) osteosarcoma viability; series mostly up to 45.9 µM
Results filed as inconclusive are left out. Active and inactive are the calls of the source. Calls follow the shape of the dose curve; as a rule, active = well fitted cell-killing curve with a large enough effect; inconclusive = small, poorly fitted or top-dose-only effect, or effect the other way; inactive = no such curve, though single readings can be large or run the other way.
Outcomes you can answer with include only these: class 1 (active), class 0 (inactive)

A selection of reference data follows.
Could you kindly confirm the outcome this assay logged for Cc1ccc(C(=O)N(CCCN)[C@@H](c2oc3cc(Cl)ccc3c(=O)c2Cc2ccccc2)C(C)C)cc1 ?
class 1

Could you kindly confirm the outcome this assay logged for COC(=O)Nc1ccc(-c2nc(N3CCOCC3)c3cnn(C4CCN(C(=O)OC)CC4)c3n2)cc1 ?
class 1

More entries:
Could you kindly confirm the outcome this assay logged for CN(C)CC[C@H](CSc1ccccc1)Nc1ccc(S(=O)(=O)NC(=O)c2ccc(N3CCN(Cc4ccccc4-c4ccc(Cl)cc4)CC3)cc2)cc1[N+](=O)[O-] ?
class 1

Could you kindly confirm the outcome this assay logged for CC1=C(CC(=O)O)c2cc(F)ccc2C1=Cc1ccc(S(C)=O)cc1 (stereo not drawn) ?
class 0

Could you kindly confirm the outcome this assay logged for COC(=O)[C@H](c1ccccc1Cl)N1CCc2sccc2C1 ?
class 0

Could you kindly confirm the outcome this assay logged for C[C@H](c1ccc(F)cc1CCCC(=O)O)N(c1cc(F)ccc1F)S(=O)(=O)c1ccc(Cl)cc1 ?
class 0

Could you kindly confirm the outcome this assay logged for CSc1cccc(Nc2ncc3cc(-c4c(Cl)cccc4Cl)c(=O)n(C)c3n2)c1 ?
class 1

Could you kindly confirm the outcome this assay logged for CCCCn1c(=O)n(Cc2ccccc2F)c(=O)c2[nH]c(Cc3ccc(NC(C)=O)cc3)nc21 ?
class 0

Could you kindly confirm the outcome this assay logged for CC(C)C[C@@H](C(=O)N[C@H](C(=O)OC1CCCC1)c1ccccc1)[C@H](O)C(=O)NO ?
class 1

Could you kindly confirm the outcome this assay logged for Cc1c(C(=O)Nc2ccc(N3C[C@@H](C)O[C@@H](C)C3)nc2)cccc1-c1ccc(OC(F)(F)F)cc1 ?
class 1

Could you kindly confirm the outcome this assay logged for COc1cc([C@@H]2c3cc4c(cc3[C@@H](O[C@@H]3O[C@@H]5CO[C@@H](C)O[C@@H]5[C@H](O)[C@@H]3O)[C@H]3COC(=O)[C@H]23)OCO4)cc(OC)c1O ?
class 1

Could you kindly confirm the outcome this assay logged for O=C1Nc2ccc(I)cc2C1=Cc1cc(Br)c(O)c(Br)c1 ?
class 0

Could you kindly confirm the outcome this assay logged for CNC(=O)[C@H](CC1=CN=C2C=CCC=C12)NC(=O)[C@@H](CC(=O)NO)CC(C)C ?
class 1

* * *

- assay.explanation: High-throughput drug toxicity screening in the BPDCN cell line Cal-1 (AID 1224825);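 also: cells exposed to compounds for 48 h; 100% = DMSO and 0% = bortezomib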
- experimental.setup: Cal-1 BPDCN cell viability, qHTS; at 45.8 µM (top of the series) unless noted
endpoint.label: viability (% of control) (%)
Kindly provide the numeric value in % only, without the unit symbol.

Solved entries (count: 2):
Requested read-out: viability (% of control). Entry: CC(C)c1onc(-c2c(Cl)cccc2Cl)c1COc1ccc(C=Cc2cccc(C(=O)O)c2)c(Cl)c1
107

Requested read-out: viability (% of control). Entry: OC1CCC(Nc2ncc3nc(Nc4c(F)cc(F)cc4F)n([C@@H]4CCOC4)c3n2)CC1 (some centres undefined)
13.2

More entries:
Requested read-out: viability (% of control). Entry: O=C(Nc1cccc(C(F)(F)F)c1)Nc1cc(S(=O)(=O)NC2CC2)ccc1-c1ccsc1
68.8

Requested read-out: viability (% of control). Entry: Nc1nc(Cl)nc2c1ncn2[C@@H]1O[C@H](CO)[C@@H](O)[C@H]1F
13.2
